test_method_notes: Clinical pharmacokinetics, plasma LC-MS/MS after single oral dose of AP capsules
Format: in vivo, human (healthy volunteers)
conditions: human, plasma, oral, 2000 mg, S4; 2.00 h; 2000 mg AP capsules; read-out: Plasma concentration
measured_quantity: concentration at 2 h (ng/mL)
Write it as a number; the unit ng/mL goes unstated.

Worked cases, concentration at 2 h given:
• C=C1CC[C@@H]2[C@](C)(CO[C@@H]3O[C@H](CO)[C@@H](O)[C@H](O)[C@H]3O)CCC[C@@]2(C)[C@@H]1CCC1=CCOC1=O [neoandrographolide] = 78.2
• C=C1CC[C@@H]2[C@](C)(CO)[C@H](O)CC[C@@]2(C)[C@@H]1CCC1=CCOC1=O [14-deoxyandrographolide] = 4.7

# context switch: different molecule, same concentration at 2 h
Enquiry: Retrieve concentration at 2 h measured for C=C1CC[C@@H]2[C@](C)(CO)[C@H](O)CC[C@@]2(C)[C@@H]1C/C=C1/C(=O)OC[C@H]1O [andrographolide] and print it.
Return: 12.7

====

test_method_notes: Clinical pharmacokinetics, plasma LC-MS/MS after single oral dose of AP capsules
Type: in vivo, human (healthy volunteers)
conditions: human, plasma, oral, 2000 mg, S3; 0.00 h; 2000 mg AP capsules; read-out: Plasma concentration
concentration at 0 h reference
Answer with a number only, understood to be in ng/mL.

# example entries with known answers
* C=C1CC[C@@H]2[C@](C)(CO)[C@H](O)CC[C@@]2(C)[C@@H]1C/C=C1/C(=O)OC[C@H]1O [andrographolide] | 0
* C=C1CC[C@@H]2[C@](C)(CO)[C@H](O)CC[C@@]2(C)[C@@H]1CCC1=CCOC1=O [14-deoxyandrographolide] | 0

# next molecule below
Enquiry: Note concentration at 0 h for the molecule shown: C=C1CC[C@@H]2[C@](C)(CO[C@@H]3O[C@H](CO)[C@@H](O)[C@H](O)[C@H]3O)CCC[C@@]2(C)[C@@H]1CCC1=CCOC1=O [neoandrographolide]
Return: 0

====

Reported concentration at 10 h values follow for various compounds
test_method_notes: Clinical pharmacokinetics, plasma LC-MS/MS after single oral dose of AP capsules
Assay type: in vivo, human (healthy volunteers)
conditions: human, plasma, oral, 2000 mg, mean n=5; 10.00 h; 2000 mg AP capsules; read-out: Mean concentration
Give just the numeric value; ng/mL need not be written.

Use the examples below as a reference point.
* C=C1CC[C@@H]2[C@](C)(CO[C@@H]3O[C@H](CO)[C@@H](O)[C@H](O)[C@H]3O)CCC[C@@]2(C)[C@@H]1CCC1=CCOC1=O [neoandrographolide] | 0
* C=C1CC[C@@H]2[C@](C)(CO)[C@H](O)CC[C@@]2(C)[C@@H]1C/C=C1/C(=O)OC[C@H]1O [andrographolide] | 0

Attention now shifts to the item below.
Enquiry: State, in one line, measured concentration at 10 h of C=C1CC[C@@H]2[C@](C)(CO)[C@H](O)CC[C@@]2(C)[C@@H]1CCC1=CCOC1=O [14-deoxyandrographolide]
Return: 0

====

test_method_notes: Clinical pharmacokinetics, plasma LC-MS/MS after single oral dose of AP capsules
Format: in vivo, human (healthy volunteers)
conditions: human, plasma, oral, 2000 mg, S3; 3.00 h; 2000 mg AP capsules; read-out: Plasma concentration
measured_quantity: concentration at 3 h (ng/mL)
Express the result in ng/mL but write the number alone.

Study these solved cases before continuing.
* C=C1CC[C@@H]2[C@](C)(CO[C@@H]3O[C@H](CO)[C@@H](O)[C@H](O)[C@H]3O)CCC[C@@]2(C)[C@@H]1CCC1=CCOC1=O [neoandrographolide] | 7.05
* C=C1CC[C@@H]2[C@](C)(CO)[C@H](O)CC[C@@]2(C)[C@@H]1CCC1=CCOC1=O [14-deoxyandrographolide] | 1.77

Attention now turns to another entry.
Enquiry: Please indicate concentration at 3 h recorded for C=C1CC[C@@H]2[C@](C)(CO)[C@H](O)CC[C@@]2(C)[C@@H]1C/C=C1/C(=O)OC[C@H]1O [andrographolide]
Return: 0
